assay: Drug concentration in ipsilateral striatum of malonate induced huntington disease rat measured after 6 hrs by LC/MS-MS analysis; format: ADME, tissue-based; conditions: read-out: Ct
property_measured: concentration at 6 h (µM)
A number alone suffices; assume µM.

Item: CCCCCCN(C)CC(=O)C(CC(=O)O)NC(=O)[C@H](CC)n1cc(C(C)(C)C)nc(NCc2nonc2C)c1=O (stereo partly specified) | concentration at 6 h: 5.1

----------
Some molecules, each annotated with its measured IC50.
biological target: Lactate dehydrogenase (Plasmodium falciparum); test: Inhibition of recombinant Plasmodium falciparum LDH
Sequence (Q0PJ46 whole entry): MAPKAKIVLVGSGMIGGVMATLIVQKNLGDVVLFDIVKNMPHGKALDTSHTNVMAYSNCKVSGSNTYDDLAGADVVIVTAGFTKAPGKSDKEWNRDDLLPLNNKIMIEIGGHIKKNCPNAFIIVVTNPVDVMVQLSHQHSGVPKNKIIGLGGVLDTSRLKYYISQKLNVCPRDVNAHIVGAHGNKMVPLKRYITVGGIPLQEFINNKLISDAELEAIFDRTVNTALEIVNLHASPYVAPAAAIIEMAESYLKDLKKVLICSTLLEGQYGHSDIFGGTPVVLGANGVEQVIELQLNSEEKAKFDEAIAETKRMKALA
A number alone suffices; assume nM.

These recorded examples may help you get a feel for the data.
O=C(O)c1nocc1O :: 16000
O=C(O)c1conc1O :: 1100
O=C(O)c1nonc1O :: 650

Next molecule, please.
Item: O=C(O)c1nsnc1O | IC50: 140

----------
experiment: physchem; conditions: octanol/water
Description: Lipophilicity, log P of the compound
Some compounds, each annotated with its measured logP.
Answer with a bare number; do not write a unit.

Fc1cc(Br)cc([C@@H]2C[C@H](c3cccc(Br)c3)n3nnnc3N2)c1 :: 4.4

Item: Oc1nc2nonc2nc1Nc1ccc(OC(F)(F)F)cc1 | logP: 5.2

Item: O=[N+]([O-])c1c(Nc2cc(F)cc(Cl)c2)ccc2nonc12 | logP: 3.99

----------
tested on: NT2; assay: Inhibition of camptothecin induced apoptosis in human NT2 cells incubated for 5 hrs in presence of camptothecin by ELISA method; assay type: functional, cell-based; details: NT2, 5 h
property_measured: pEC50
Just the number, please; pEC50 means minus log10 of the concentration in mol/L.

Item: CCCCCCN(C)CC(=O)C(CC(=O)O)NC(=O)[C@H](CC)n1cc(C(C)(C)C)nc(NCc2nonc2C)c1=O (some centres not stated) | pEC50: 7.68

----------
assay: Drug concentration in mouse brain at 10 mg/kg, iv administered once daily measured after 2 hrs; assay type: ADME, organism-based; conditions: read-out: Ct
property_measured: concentration at 2 h (nM)
A number alone suffices; assume nM.

Item: CCCOc1ccc(Nc2nc3nonc3nc2N2CCC(Oc3ccc(Cl)cc3)CC2)cc1 | concentration at 2 h: 800

----------
Some compounds, each annotated with its measured IC50.
assay: Inhibition of human recombinant LDH

Cn1nc(O)c(C(=O)O)n1 :: > 100 µM

Item: Cn1nnc(O)c1C(=O)O | IC50: > 100 µM

Item: O=C(O)c1nsnc1O | IC50: 10.3 µM

Item: O=C(O)c1conc1O | IC50: 54 µM

Item: O=C(O)c1nonc1O | IC50: 72.1 µM

Item: O=C(O)c1nocc1O | IC50: > 100 µM

----------
Some compounds, each annotated with its measured pKi.
assay: Binding affinity to human erythrocyte nucleoside transport protein assessed as inhibition constant; assay type: cell-based
Just the number, please; pKi means minus log10 of the concentration in mol/L.

OC[C@H]1O[C@@H](n2cnc3c(SCc4ccc5nonc5c4)ncnc32)[C@H](O)[C@@H]1O :: 8.82

Item: OC[C@H]1O[C@@H](n2cnc3c(SCc4cccc5nonc45)ncnc32)[C@H](O)[C@@H]1O | pKi: 8.01

Item: OC[C@H]1O[C@@H](n2cnc3c(SCc4cccc5conc45)ncnc32)[C@H](O)[C@@H]1O | pKi: 6.18

----------
tested on: Haemophilus influenzae; experiment: Antibacterial activity against Haemophilus influenzae assessed as reduction in bacterial growth by broth microdilution method; assay type: functional
property_measured: MIC (µM)
A number alone suffices; assume µM.

Oc1nc2nonc2nc1-c1ccc(Oc2ccccc2)cc1 :: 26

Item: Oc1nc2nonc2nc1-c1ccc(Cl)cc1 | MIC: 4

Item: Oc1nc2nonc2nc1-c1ccc(F)cc1 | MIC: 4.3

Item: Oc1nc2nonc2nc1-c1ccc(Br)cc1 | MIC: 3.4

----------
molecular target: UniProtKB P00533
Sequence (P00533 whole entry): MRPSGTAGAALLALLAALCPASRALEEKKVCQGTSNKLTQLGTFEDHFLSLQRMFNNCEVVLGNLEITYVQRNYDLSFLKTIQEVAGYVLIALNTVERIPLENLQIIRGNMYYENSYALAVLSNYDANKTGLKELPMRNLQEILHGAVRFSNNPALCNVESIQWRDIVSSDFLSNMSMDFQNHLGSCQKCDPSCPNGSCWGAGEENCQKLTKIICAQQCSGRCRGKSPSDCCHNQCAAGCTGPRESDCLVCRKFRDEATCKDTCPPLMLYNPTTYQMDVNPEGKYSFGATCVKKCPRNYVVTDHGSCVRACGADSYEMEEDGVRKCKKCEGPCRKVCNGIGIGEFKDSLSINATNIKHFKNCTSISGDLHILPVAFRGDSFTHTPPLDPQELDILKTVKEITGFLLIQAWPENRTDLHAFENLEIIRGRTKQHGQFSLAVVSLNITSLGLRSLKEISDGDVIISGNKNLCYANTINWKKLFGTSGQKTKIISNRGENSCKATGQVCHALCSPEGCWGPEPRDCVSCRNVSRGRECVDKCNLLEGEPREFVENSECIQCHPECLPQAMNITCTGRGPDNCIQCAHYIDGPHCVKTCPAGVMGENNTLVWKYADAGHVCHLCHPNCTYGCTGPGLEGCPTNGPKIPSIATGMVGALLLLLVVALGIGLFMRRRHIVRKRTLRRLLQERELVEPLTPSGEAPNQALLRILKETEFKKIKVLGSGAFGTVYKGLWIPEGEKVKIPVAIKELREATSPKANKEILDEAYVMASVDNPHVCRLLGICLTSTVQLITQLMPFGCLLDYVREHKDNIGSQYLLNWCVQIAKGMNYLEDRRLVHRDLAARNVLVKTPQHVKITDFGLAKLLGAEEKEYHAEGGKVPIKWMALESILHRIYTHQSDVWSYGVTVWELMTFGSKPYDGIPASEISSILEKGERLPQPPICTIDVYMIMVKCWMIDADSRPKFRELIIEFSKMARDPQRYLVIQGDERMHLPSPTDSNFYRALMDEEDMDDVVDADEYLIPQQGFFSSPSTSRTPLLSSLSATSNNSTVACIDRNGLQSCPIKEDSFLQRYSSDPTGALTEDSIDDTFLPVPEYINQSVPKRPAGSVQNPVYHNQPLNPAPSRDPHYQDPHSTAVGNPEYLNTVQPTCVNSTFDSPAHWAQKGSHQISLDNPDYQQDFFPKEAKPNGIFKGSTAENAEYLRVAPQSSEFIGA
property_measured: IC50

Item: O=C(O)c1cc(-c2ccc(/C=N/Nc3nc4nonc4nc3Nc3ccccc3)o2)ccc1Cl | IC50: < 1000 nM

----------
molecular target: Prostaglandin G/H synthase 1 (Homo sapiens, UniProt P23219)
Sequence (P23219 whole entry): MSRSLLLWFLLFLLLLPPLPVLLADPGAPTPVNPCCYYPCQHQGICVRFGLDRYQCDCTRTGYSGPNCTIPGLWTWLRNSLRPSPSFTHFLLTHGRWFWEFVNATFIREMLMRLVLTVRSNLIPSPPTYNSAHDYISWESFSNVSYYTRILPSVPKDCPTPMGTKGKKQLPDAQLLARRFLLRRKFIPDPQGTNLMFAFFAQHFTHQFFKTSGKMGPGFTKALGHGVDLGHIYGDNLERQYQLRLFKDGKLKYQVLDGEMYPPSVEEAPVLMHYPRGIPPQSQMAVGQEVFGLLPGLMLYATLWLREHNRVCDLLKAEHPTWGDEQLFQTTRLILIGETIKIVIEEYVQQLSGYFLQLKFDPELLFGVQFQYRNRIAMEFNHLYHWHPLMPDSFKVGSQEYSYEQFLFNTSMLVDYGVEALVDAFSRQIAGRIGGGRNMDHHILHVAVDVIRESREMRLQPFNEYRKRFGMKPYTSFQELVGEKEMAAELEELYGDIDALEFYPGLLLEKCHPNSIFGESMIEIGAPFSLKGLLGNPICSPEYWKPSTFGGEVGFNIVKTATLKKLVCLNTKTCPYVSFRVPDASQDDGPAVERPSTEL
pIC50: −log10 of the molar value.
property_measured: pIC50

Result for COc1ccc2c(c1)c(Cc1nonc1O)c(C)n2C(=O)c1ccccc1 , tested on Prostaglandin G/H synthase 1 (Homo sapiens, UniProt P23219), pIC50: < 4.00

----------
assay: Half life in mouse; assay type: ADME, organism-based; conditions: in vivo
Some compounds, each annotated with its measured half-life.

NS(=O)(=O)N1CCC[C@@H](CNc2nonc2/C(=N/O)Nc2ccc(F)c(Br)c2)C1 :: 228 min
CC1(C)CC[C@]2(C(=O)O)CC[C@]3(C)C(=CC[C@@H]4[C@@]5(C)Cc6nonc6C(C)(C)[C@@H]5CC[C@]43C)[C@@H]2C1 :: 90 min
CC1(C)CC[C@]2(C(=O)O)CC[C@]3(C)C(=CC[C@@H]4[C@@]5(C)CC[C@H](O)C(C)(C)[C@@H]5CC[C@]43C)[C@@H]2C1 [OLEANOLIC_ACID] :: 42 min

Next compound, please.
Item: NS(=O)(=O)NCCNc1nonc1/C(=N/O)Nc1ccc(F)c(Br)c1 [EPACADOSTAT] | half-life: < 30 min

----------
target: Ribosomal protein S6 kinase beta-1 (Homo sapiens)
Sequence (P23443 whole entry): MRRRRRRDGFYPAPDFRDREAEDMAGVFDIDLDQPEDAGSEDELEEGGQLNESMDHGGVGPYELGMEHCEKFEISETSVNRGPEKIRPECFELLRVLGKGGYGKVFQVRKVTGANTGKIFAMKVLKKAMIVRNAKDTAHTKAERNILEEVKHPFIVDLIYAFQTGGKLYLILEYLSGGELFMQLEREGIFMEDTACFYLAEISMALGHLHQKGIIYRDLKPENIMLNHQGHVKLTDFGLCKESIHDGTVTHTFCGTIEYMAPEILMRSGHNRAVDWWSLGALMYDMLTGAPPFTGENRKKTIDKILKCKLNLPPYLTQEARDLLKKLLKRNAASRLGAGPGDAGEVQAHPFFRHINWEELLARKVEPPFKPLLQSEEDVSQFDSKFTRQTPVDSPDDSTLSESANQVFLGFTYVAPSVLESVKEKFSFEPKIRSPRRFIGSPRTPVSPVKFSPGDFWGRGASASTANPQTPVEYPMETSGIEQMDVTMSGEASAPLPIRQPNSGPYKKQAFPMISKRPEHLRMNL
property_measured: IC50 (nM)
A number alone suffices; assume nM.

Item: Cc1ccc2c(c1)nc(-c1nonc1N)n2C1CCC1 | IC50: 19

----------
target: Histamine H2 receptor (Homo sapiens)
Sequence (P25021 whole entry): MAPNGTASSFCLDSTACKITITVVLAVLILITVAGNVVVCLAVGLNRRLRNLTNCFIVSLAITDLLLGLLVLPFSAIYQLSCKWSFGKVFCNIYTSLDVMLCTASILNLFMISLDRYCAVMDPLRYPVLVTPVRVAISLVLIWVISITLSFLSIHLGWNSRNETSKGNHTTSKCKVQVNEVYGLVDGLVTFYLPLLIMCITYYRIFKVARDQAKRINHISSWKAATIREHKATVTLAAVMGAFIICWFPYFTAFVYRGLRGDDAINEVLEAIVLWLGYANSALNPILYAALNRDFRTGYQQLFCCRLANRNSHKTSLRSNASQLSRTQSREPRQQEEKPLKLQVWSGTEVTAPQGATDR
property_measured: Ki (nM)
A number alone suffices; assume nM.

Result for CN(C)Cc1ccc(CSCCNc2nonc2NCCCc2ccccc2)o1 , tested on Histamine H2 receptor (Homo sapiens), Ki: 2

----------
assay: physchem; conditions: PBS, pH 7.4
Description: Solubility of the compound in PBS at pH 7.4
property_measured: solubility

Item: Oc1nc2nonc2nc1Nc1ccc(OC(F)(F)F)cc1 | solubility: > 500 µM

----------
assay: Cmax in Malonate induced Huntington disease […] model at 1.5 nmol administered intra striatal measured for 1 hr by LC/MS-MS analysis; assay type: ADME; parameters: time 1 hrs, dose 1.5 nmol; settings: in vivo
property_measured: Cmax (µM)
A number alone suffices; assume µM.

Item: CCCCCCN(C)CC(=O)C(CC(=O)O)NC(=O)[C@H](CC)n1cc(C(C)(C)C)nc(NCc2nonc2C)c1=O (stereo partly specified) | Cmax: 32.2

----------
biological target: Amyloid-beta precursor protein (Homo sapiens, UniProt P05067); assay: Inhibition of amyloid beta (unknown origin) at 5 uM relative to control
Sequence (P05067 whole entry): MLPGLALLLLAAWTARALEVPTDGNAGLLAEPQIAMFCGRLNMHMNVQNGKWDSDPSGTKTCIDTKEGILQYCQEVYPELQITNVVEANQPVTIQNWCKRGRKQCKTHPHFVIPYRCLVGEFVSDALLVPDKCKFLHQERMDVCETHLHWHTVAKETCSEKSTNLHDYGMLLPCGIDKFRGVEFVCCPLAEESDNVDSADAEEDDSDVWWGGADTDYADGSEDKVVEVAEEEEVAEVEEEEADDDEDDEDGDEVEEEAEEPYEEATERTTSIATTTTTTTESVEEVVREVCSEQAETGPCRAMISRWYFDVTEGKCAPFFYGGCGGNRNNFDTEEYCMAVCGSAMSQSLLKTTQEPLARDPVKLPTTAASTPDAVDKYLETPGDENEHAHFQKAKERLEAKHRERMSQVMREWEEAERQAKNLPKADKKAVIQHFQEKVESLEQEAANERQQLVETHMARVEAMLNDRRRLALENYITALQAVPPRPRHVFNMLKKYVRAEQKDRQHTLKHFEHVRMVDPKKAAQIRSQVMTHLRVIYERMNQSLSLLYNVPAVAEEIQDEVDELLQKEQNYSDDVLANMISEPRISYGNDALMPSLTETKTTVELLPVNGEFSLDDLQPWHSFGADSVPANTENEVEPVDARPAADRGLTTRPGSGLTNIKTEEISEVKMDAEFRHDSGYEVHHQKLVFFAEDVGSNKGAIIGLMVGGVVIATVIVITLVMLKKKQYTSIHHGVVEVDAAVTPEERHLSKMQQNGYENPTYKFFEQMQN
property_measured: inhibition
State the value, then name its unit.

CN(Cc1ccc(F)cc1)c1cc(C(O)C(F)(F)F)cc2nonc12 (centres undefined) :: 38%
OC(c1cccc(-c2cc(N3CCC(N4CCCC4)CC3)c3nonc3c2)c1)C(F)(F)F (centres undefined) :: 40%
COC1CN(c2cc(-c3cccc(C(O)C(F)(F)F)c3)cc3nonc23)C1 (centres undefined) :: 51%

Item: OC1CN(c2cc(-c3cccc(C(O)C(F)(F)F)c3)cc3nonc23)C1 (centres undefined) | inhibition: 53%

----------
experiment: Half life in Malonate induced Huntington disease rat; format: ADME; settings: in vivo
property_measured: half-life (h)
A number alone suffices; assume h.

Item: CCCCCCN(C)CC(=O)C(CC(=O)O)NC(=O)[C@H](CC)n1cc(C(C)(C)C)nc(NCc2nonc2C)c1=O (stereo partly specified) | half-life: 3

----------
biological target: Vascular endothelial growth factor receptor 2 (Homo sapiens)
property_measured: IC50

Result for O=C(O)c1cc(-c2ccc(/C=N/Nc3nc4nonc4nc3Nc3ccccc3)o2)ccc1Cl , tested on Vascular endothelial growth factor receptor 2 (Homo sapiens), IC50: < 1000 nM

----------
system: HeLa; assay: cells; settings: Homo sapiens
Description: Antiproliferative activity against human HeLa cells assessed as reduction in cell viability
property_measured: pEC50
Just the number, please; pEC50 means minus log10 of the concentration in mol/L.

Nc1nonc1/C(=N/O)NCc1ccccc1 :: 6.00

Next compound, please.
Item: Nc1nonc1C(=NO)Nc1ccc(F)c(Cl)c1 | pEC50: 7.72

----------
target: Caspase-8 (Homo sapiens, UniProt Q14790)
Sequence (Q14790 217-374 limits assumed): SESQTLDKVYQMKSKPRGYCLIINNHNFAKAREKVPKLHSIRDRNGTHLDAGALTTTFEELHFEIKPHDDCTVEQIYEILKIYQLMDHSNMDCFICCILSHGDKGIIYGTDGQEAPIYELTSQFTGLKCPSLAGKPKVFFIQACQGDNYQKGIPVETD
Sequence (Q14790 385-479 limits assumed): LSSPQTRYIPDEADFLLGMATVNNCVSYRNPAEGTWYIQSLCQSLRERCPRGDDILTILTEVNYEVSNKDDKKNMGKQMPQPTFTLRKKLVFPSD
property_measured: IC50 (µM)
A number alone suffices; assume µM.

Item: CCCCCCN(C)CC(=O)C(CC(=O)O)NC(=O)[C@H](CC)n1cc(C(C)(C)C)nc(NCc2nonc2C)c1=O (stereo partly specified) | IC50: 6.48

----------
test: Inhibition of GSK3 (unknown origin); design: species or system Homo sapiens
Some molecules, each annotated with its measured IC50.
A number alone suffices; assume µM.

CCn1c(-c2nonc2N)nc2cncc(CNC3CCNCC3)c21 :: 1.9

Next molecule, please.
Item: CCn1c(-c2nonc2N)nc2cnccc21 | IC50: 0.033

----------
Some molecules, each annotated with its measured EC50.
test: Anti-inflammatory activity against human PBMCs assessed as reduction in LPS-induced TNF-alpha release by ELISA analysis; assay type: functional, cell-based; details: PBMC
A number alone suffices; assume nM.

These recorded examples may help you get a feel for the data.
O=C(O)[C@H]1CC[C@H](c2cc3cccnc3c(-c3cccc(F)c3)n2)CC1 :: 126
COc1ccc([C@]2(C#N)CC[C@@H](C(=O)O)CC2)cc1OC1CCCC1 [CILOMILAST] :: 3.47
O=C(O)c1ccc(-c2cc3cccnc3c(-c3ccc4nonc4c3)n2)cc1 :: 67.6

Next molecule, please.
Item: O=C(Nc1c(Cl)cncc1Cl)c1ccc(OC(F)F)c(OCC2CC2)c1 [ROFLUMILAST] | EC50: 50

The reported measurements were obtained from ChEMBL document CHEMBL5236544.
